Test system: Acinetobacter baumannii ATCC17961
Test method notes: Antimicrobial susceptibility testing: 90% growth inhibitory concentration (IC90) determination in Iso-Sensitest broth, OD600 growth
Assay type: cell-based
Test conditions: Acinetobacter baumannii, ATCC17961, 16 h, strain ATCC 17961, OD600 growth over 16 h, read-out: A. baumannii ATCC 17961 IC90
Measure: IC90 (nM)
Report the figure in nM without appending any unit label.

Recorded results for 3 molecules are shown here.
Molecular string	Numeric result
O=C(NC1CCN(C(=O)c2ccc(Nc3nccn4c(-c5c[nH]nc5C(F)(F)F)cnc34)cc2Cl)CC1)[C@@H]1C[C@@H](O)CN1	391
CCCn1cc(-c2cnc3c(Nc4ccc(C(=O)NCCOCCN)c(CC)c4)nccn23)c(C(F)F)n1	164
CCc1cc(Nc2nccn3c(-c4cn(CC#N)nc4C(F)(F)F)cnc23)ccc1C(=O)NCC(=O)NCCN	895

Now for a further molecule.
Fill in the blank: the reported IC90 of `CCc1cc(Nc2nccn3c(-c4cn(C5CCC5)nc4C(F)(F)F)cnc23)ccc1C(=O)NCCOCCN1CCOCC1` is ____.
279

* * *

Tested on: Acinetobacter baumannii ATCC17961
Test method notes: Antimicrobial susceptibility testing: 90% growth inhibitory concentration (IC90) determination in Iso-Sensitest broth, OD600 growth
Type: cell-based
Test conditions: strain ATCC 17961, OD600 growth over 16 h, read-out: A. baumannii ATCC 17961 IC90
Protocol: Antimicrobial Susceptibility Testing: 90% Growth Inhibitory Concentration (IC90) Determination The in vitro antimicrobial activity of the compounds was determined according to the following procedure: The assay used a 10-points Iso-Sensitest broth medium to measure quantitatively the in vitro activity of the compounds against Acinetobacter baumannii ATCC17961 or ATCC17968. […]
Please use the following IC90 ranges when assigning a class: LOW (below 0.2 µM), MEDIUM (0.2 µM to below 0.4 µM), HIGH (0.4 µM or more)

Examples with answers:
Molecular string	Label
N[C@H]1CC[C@H](NC(=O)N2CCN(C(=O)c3ccc(Nc4nccn5c(-c6c[nH]nc6C(F)(F)F)cnc45)cc3Cl)CC2)C1	MEDIUM
C#CCNCCCNC(=O)c1c(C)cc(Nc2nccn3c(-c4cn(CCF)nc4C(F)(F)F)cnc23)cc1F	HIGH
N[C@@H]1CN[C@@H](C(=O)N2CCN(C(=O)c3ccc(Nc4nccn5c(-c6c[nH]nc6C(F)(F)F)cnc45)cc3Cl)CC2)C1	HIGH

Sort `C[C@H](O)CNC(=O)c1ccc(Nc2nccn3c(-c4cn(CC#N)nc4C(F)(F)F)cnc23)cc1Cl` into one of the categories.
MEDIUM

Sort `C=CCn1cc(-c2cnc3c(Nc4cc(C)c(C(=O)NCCOCCN)c(F)c4)nccn23)c(C(F)(F)F)n1` into one of the categories.
LOW

Sort `Cc1cc(Nc2nccn3c(-c4c[nH]nc4C(F)(F)F)cnc23)ccc1C(=O)N1CCN(C(=O)N[C@@H]2CNC[C@H]2O)CC1` into one of the categories.
HIGH

Sort `NCCCC[C@H](N)C(=O)NCCCNC(=O)c1ccc(Nc2nccn3c(-c4c[nH]nc4C(F)(F)F)cnc23)cc1Cl` into one of the categories.
HIGH

Sort `N#CCn1cc(-c2cnc3c(Nc4ccc(C(=O)N5CCN(C(=O)N6CCC(N)CC6)CC5)c(Cl)c4)nccn23)c(C(F)(F)F)n1` into one of the categories.
LOW

Sort `C=CCn1cc(-c2cnc3c(Nc4ccc(C(=O)NCCCN)c(CC)c4)nccn23)c(C(F)(F)F)n1` into one of the categories.
LOW

Sort `COCCn1cc(-c2cnc3c(Nc4ccc(C(=O)N5CCN(C(=O)NCCN)CC5)c(Cl)c4)nccn23)c(C(F)(F)F)n1` into one of the categories.
MEDIUM

Sort `CCc1cc(Nc2nccn3c(-c4cn(CC5CC5)nc4C(F)(F)F)cnc23)ccc1C(=O)NCCOCCN` into one of the categories.
LOW

Sort `C=CCn1cc(-c2cnc3c(Nc4ccc(C(=O)NCCOC[C@@H](C)N)c(CC)c4)nccn23)c(C(F)(F)F)n1` into one of the categories.
LOW
